B1: PTPLAD1 (parent)
chain: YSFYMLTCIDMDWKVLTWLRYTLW

Variants of: B1
Experiment: protein stability index of a GFP-peptide fusion (GPS, HEK-293T) (PSI 1-6); higher = more stable;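 also: lentivirally expressed fusions sorted by FACS into six bins by GFP to DsRed ratio, PSI derived from sequencing read proportions per bin multiplied by bin number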
Conditions: c terminus: a fixed tail appended
protein stability index overview
quantity.measured: protein stability index

>>> experimental_value("YSFYMLTCIDMDWKVLTVLRYTLW [W18V]")
2.83
>>> experimental_value("YSFYMLTCIDMDDKVLTWLRYTLW [W13D]")
1.74
>>> experimental_value("YSFYMLTCMDMDWKVLTWLRYTLW [I9M]")
2.6
>>> experimental_value("YSPYMLTCIDMDWKVLTWLRYTLW [F3P]")
2.51
